Value source: patent US5356880A

test system: HSV-1 (Miyama strain); assay: In vitro antiviral action on cells infected with HSV-1 (Miyama strain), CPE inhibition, TCID50; type: cell-based, Herpes simplex virus type 1; conditions: Human alphaherpesvirus 1; 5 μg/ml; GMK cells; read-out: Antiviral Activity (ΔTCID50)
READOUT_KIND: log reduction at 5 µg/mL
Write no unit; give the number alone.

Could you tell me which log reduction at 5 µg/mL is on file for COc1ccccc1N1CCN(C(=O)[C@@]2(C)CC[C@]3(C)CC[C@]4(C)C(=CC[C@@H]5[C@@]6(C)CC[C@H](OC(=O)CCC(=O)O)C(C)(C)[C@@H]6CC[C@]54C)[C@@H]3C2)CC1 ? 2.6

Could you tell me which log reduction at 5 µg/mL is on file for CC(C)=CCCC(C)=CCCC(C)=CCN1CCN(C(=O)[C@@]2(C)CC[C@]3(C)CC[C@]4(C)C(=CC[C@@H]5[C@@]6(C)CC[C@H](OC(=O)/C=C\C(=O)O)C(C)(C)[C@@H]6CC[C@]54C)[C@@H]3C2)CC1 ? 2

Could you tell me which log reduction at 5 µg/mL is on file for CC1(C)[C@@H](OCCC(=O)O)CC[C@]2(C)[C@H]3CC=C4[C@@H]5C[C@@](C)(C(=O)O)CC[C@]5(C)CC[C@@]4(C)[C@]3(C)CC[C@@H]12 ? 1.6
